# assaySummary: Acute toxicity to mice, intravenous
# details: in vivo, male mouse DC1, i.v., 3 days observation
Structures can show the parent of a compound that is named as a salt.
measurementName: LD50 at 72 h (mg/kg)
Give bare numbers, in mg/kg.

Previously resolved entries follow.
{"molecule": "CC[C@H]1CNCC[C@H]1CC[C@H](O)c1ccnc2ccc(OC)cc12 [8 (1(S)-propanol isomer)]", "unitSpec": "mg/kg", "LD50 at 72 h": 17}
{"molecule": "C=C[C@H]1CNCC[C@H]1CCC(O)c1ccnc2ccc(OC)cc12 (mixture of isomers)", "unitSpec": "mg/kg", "LD50 at 72 h": 21.5}
{"molecule": "CC(C)(C)c1cc(C(O)CCC2CCNCC2)c2ccccc2n1 (racemic)", "unitSpec": "mg/kg", "LD50 at 72 h": 26}
{"molecule": "C=C[C@H]1CNCC[C@H]1CC[C@H](O)c1ccnc2ccc(OC)cc12", "unitSpec": "mg/kg", "LD50 at 72 h": 20.3}
{"molecule": "CC[C@H]1CNCC[C@H]1CC[C@@H](O)c1ccnc2ccc(OC)cc12 [8 (1(R)-propanol isomer)]", "unitSpec": "mg/kg", "LD50 at 72 h": 29}
{"molecule": "C=C[C@H]1C[N@@]2CC[C@H]1C[C@@H]2[C@@H](O)c1ccnc2ccc(OC)cc12 [Quinidine sulfate, reference compound]", "unitSpec": "mg/kg", "LD50 at 72 h": 60}
{"molecule": "C=C[C@@H]1CN(C)CC[C@H]1CC[C@H](O)c1ccnc2ccc(OC)cc12 [9 (3(S)-ethenyl isomer)]", "unitSpec": "mg/kg", "LD50 at 72 h": 33}
{"molecule": "C=C[C@H]1CN(C)CC[C@H]1CC[C@H](O)c1ccnc2ccc(OC)cc12 [9 (3(R)-ethenyl isomer)]", "unitSpec": "mg/kg", "LD50 at 72 h": 19}

Provide LD50 at 72 h for all items below, preserving their order.
1. C=C[C@H]1CNCC[C@H]1CC[C@@H](O)c1ccnc2ccc(OC)cc12
2. OC(CCC1CCNCC1)c1cc(-c2ccccc2)nc2ccccc12 (racemic)

Response line:
1. 33
2. 21
